For each of the binders below, state its ED50 (nM), FDC-P1 lactogenic assay (cell proliferation, Alamar blue).
Biological target: T1, human prolactin receptor on transfected FDC-P1 cells (human, UniProt P16471 25-622)
T1 sequence (looked up): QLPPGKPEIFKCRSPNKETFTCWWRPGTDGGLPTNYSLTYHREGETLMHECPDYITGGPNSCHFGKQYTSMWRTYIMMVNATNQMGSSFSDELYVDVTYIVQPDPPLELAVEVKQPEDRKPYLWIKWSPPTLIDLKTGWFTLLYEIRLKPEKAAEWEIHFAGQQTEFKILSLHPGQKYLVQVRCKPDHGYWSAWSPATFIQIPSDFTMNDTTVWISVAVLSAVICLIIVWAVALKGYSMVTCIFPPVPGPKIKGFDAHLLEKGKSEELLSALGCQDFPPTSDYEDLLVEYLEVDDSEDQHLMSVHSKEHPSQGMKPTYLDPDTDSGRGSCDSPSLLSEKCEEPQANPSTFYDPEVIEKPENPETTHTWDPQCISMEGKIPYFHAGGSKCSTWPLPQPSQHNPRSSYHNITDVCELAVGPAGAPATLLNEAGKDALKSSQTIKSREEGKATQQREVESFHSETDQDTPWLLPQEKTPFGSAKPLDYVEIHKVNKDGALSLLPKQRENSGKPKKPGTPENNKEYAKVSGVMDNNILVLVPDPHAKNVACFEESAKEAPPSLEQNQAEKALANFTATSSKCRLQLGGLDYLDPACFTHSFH
Experiment: cell-based or functional assay
Give the number; nM is assumed, so skip it.

Prompt: Give the value of ED50 (nM), FDC-P1 lactogenic assay (cell proliferation, Alamar blue) reported for the following: L95E human prolactin (ligand) MLPICPGGAARCQVTLRDLFDRAVVLSHYIHNLSSEMFSEFDKRYTHGRGFITKAINSCHTSSLATPEDKEQAQQMNQKDFLSLIVSILRSWNEPEYHLVTEVRGMQEAPEAILSKAVEIEEQTKRLLEGMELIVSQVHPETKENEIYPVWSGLPSLQMADEESRLSAYYNLLHCLRRDSHKIDNYLKLLKCRIIHNNNC
Response: 5.6

Prompt: Look up and state reported ED50 (nM), FDC-P1 lactogenic assay (cell proliferation, Alamar blue) for L171E human prolactin (ligand) MLPICPGGAARCQVTLRDLFDRAVVLSHYIHNLSSEMFSEFDKRYTHGRGFITKAINSCHTSSLATPEDKEQAQQMNQKDFLSLIVSILRSWNEPLYHLVTEVRGMQEAPEAILSKAVEIEEQTKRLLEGMELIVSQVHPETKENEIYPVWSGLPSLQMADEESRLSAYYNELHCLRRDSHKIDNYLKLLKCRIIHNNNC
Response: 5.7

Prompt: Could you please provide reported ED50 (nM), FDC-P1 lactogenic assay (cell proliferation, Alamar blue) for H173E human prolactin (ligand) MLPICPGGAARCQVTLRDLFDRAVVLSHYIHNLSSEMFSEFDKRYTHGRGFITKAINSCHTSSLATPEDKEQAQQMNQKDFLSLIVSILRSWNEPLYHLVTEVRGMQEAPEAILSKAVEIEEQTKRLLEGMELIVSQVHPETKENEIYPVWSGLPSLQMADEESRLSAYYNLLECLRRDSHKIDNYLKLLKCRIIHNNNC ? Thanks!
Response: 1130

Prompt: In one line, give reported ED50 (nM), FDC-P1 lactogenic assay (cell proliferation, Alamar blue) of the entry Y169E human prolactin (ligand) MLPICPGGAARCQVTLRDLFDRAVVLSHYIHNLSSEMFSEFDKRYTHGRGFITKAINSCHTSSLATPEDKEQAQQMNQKDFLSLIVSILRSWNEPLYHLVTEVRGMQEAPEAILSKAVEIEEQTKRLLEGMELIVSQVHPETKENEIYPVWSGLPSLQMADEESRLSAYENLLHCLRRDSHKIDNYLKLLKCRIIHNNNC .
Response: 64.8

Prompt: Specify ED50 (nM), FDC-P1 lactogenic assay (cell proliferation, Alamar blue) for ΔF50 human prolactin (ligand) MLPICPGGAARCQVTLRDLFDRAVVLSHYIHNLSSEMFSEFDKRYTHGRGITKAINSCHTSSLATPEDKEQAQQMNQKDFLSLIVSILRSWNEPLYHLVTEVRGMQEAPEAILSKAVEIEEQTKRLLEGMELIVSQVHPETKENEIYPVWSGLPSLQMADEESRLSAYYNLLHCLRRDSHKIDNYLKLLKCRIIHNNNC and stop.
Response: 0.03

Prompt: Give ED50 (nM), FDC-P1 lactogenic assay (cell proliferation, Alamar blue) for L165E human prolactin (ligand) MLPICPGGAARCQVTLRDLFDRAVVLSHYIHNLSSEMFSEFDKRYTHGRGFITKAINSCHTSSLATPEDKEQAQQMNQKDFLSLIVSILRSWNEPLYHLVTEVRGMQEAPEAILSKAVEIEEQTKRLLEGMELIVSQVHPETKENEIYPVWSGLPSLQMADEESRESAYYNLLHCLRRDSHKIDNYLKLLKCRIIHNNNC
Response: 29.5

Prompt: For the binder L98E human prolactin (ligand) MLPICPGGAARCQVTLRDLFDRAVVLSHYIHNLSSEMFSEFDKRYTHGRGFITKAINSCHTSSLATPEDKEQAQQMNQKDFLSLIVSILRSWNEPLYHEVTEVRGMQEAPEAILSKAVEIEEQTKRLLEGMELIVSQVHPETKENEIYPVWSGLPSLQMADEESRLSAYYNLLHCLRRDSHKIDNYLKLLKCRIIHNNNC , give its reported ED50 (nM), FDC-P1 lactogenic assay (cell proliferation, Alamar blue).
Response: 63.1
